EXPERIMENTAL_TARGET: Corticotropin-releasing factor receptor 2/Corticotropin-releasing factor-binding protein (Homo sapiens, UniProt P24387+Q13324)
Sequence (Q13324 whole entry): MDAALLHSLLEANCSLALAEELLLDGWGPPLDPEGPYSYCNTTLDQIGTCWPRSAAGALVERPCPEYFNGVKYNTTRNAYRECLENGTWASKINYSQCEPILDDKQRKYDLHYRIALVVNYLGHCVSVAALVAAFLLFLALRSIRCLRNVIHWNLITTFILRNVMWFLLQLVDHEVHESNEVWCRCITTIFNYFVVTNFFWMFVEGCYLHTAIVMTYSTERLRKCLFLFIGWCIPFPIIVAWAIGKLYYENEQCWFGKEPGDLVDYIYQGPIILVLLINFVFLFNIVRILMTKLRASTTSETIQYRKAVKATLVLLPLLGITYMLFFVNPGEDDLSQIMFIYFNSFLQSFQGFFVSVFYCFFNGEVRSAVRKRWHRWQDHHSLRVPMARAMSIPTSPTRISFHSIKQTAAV
Sequence (P24387 whole entry): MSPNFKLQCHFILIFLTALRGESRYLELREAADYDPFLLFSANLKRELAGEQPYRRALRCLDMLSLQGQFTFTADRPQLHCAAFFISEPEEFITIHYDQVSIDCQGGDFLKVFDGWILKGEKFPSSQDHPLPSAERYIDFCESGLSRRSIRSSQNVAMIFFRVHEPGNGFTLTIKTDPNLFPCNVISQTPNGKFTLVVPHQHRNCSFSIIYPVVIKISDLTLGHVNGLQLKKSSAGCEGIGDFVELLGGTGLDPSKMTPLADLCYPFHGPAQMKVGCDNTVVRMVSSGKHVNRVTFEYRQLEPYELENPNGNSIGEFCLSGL
ASSAY_TEXT: Dose Response confirmation of uHTS hits for small molecule antagonists of the CRF-binding protein and CRF-R2 receptor complex.
Type: functional
CONDITION: read-out: IC50_Mean
The source made the active and inactive calls.
Choose the fitting class; nothing outside true (1) for active, false (0) for inactive is accepted.

Recorded test call requested for `c1ccc2c(c1)OCCOCCOCCOCCOc1ccccc1OCCOCCOCCO2` true (1)

And then CC1(C)Cc2c(sc3[nH]c(=O)n(CC(=O)NCC4CCCO4)c(=O)c23)CO1 (stereo unspecified) , what is it? false (0)

And then `COc1ccc(/C=C/C(=O)Nc2c(C)nn(C)c2C)cc1COc1ccc(Br)cc1` , what is it? true (1)

And then `O=C1CCC(C(=O)Nc2ccccc2N2CCOCC2)=NN1` , what is it? false (0)

And then `Clc1ccc(Cl)c(Oc2ccc(Oc3nc(Cl)ccc3Cl)cc2)n1` , what is it? true (1)

And then `COc1ccccc1N1CCN(CC(=O)Nc2c(C)n[nH]c2C)CC1` , what is it? false (0)

And then `CCOC(=O)N1CCN(C(=O)Cn2cnc3ccccc3c2=O)CC1` , what is it? false (0)

And then `CCN(CC)c1ccc(/C=N\NC(=O)c2cccc3cc[nH]c23)cc1` , what is it? false (0)

And then O=C(NCc1cccs1)c1ccc(C[S+]([O-])Cc2cccc(Cl)c2)o1 (stereo unspecified) , what is it? false (0)

And then `COc1ccc(CN(CCc2c[nH]c3ccccc23)Cc2ccc(OC)cc2)cc1` , what is it? false (0)

And then `COC(=O)c1cc(OC)c(OC)cc1NC(=O)c1ccco1` , what is it? true (1)

* * *

EXPERIMENTAL_TARGET: Genome polyprotein (dengue virus type 2)
Sequence (P29990 2492-3391 limits assumed): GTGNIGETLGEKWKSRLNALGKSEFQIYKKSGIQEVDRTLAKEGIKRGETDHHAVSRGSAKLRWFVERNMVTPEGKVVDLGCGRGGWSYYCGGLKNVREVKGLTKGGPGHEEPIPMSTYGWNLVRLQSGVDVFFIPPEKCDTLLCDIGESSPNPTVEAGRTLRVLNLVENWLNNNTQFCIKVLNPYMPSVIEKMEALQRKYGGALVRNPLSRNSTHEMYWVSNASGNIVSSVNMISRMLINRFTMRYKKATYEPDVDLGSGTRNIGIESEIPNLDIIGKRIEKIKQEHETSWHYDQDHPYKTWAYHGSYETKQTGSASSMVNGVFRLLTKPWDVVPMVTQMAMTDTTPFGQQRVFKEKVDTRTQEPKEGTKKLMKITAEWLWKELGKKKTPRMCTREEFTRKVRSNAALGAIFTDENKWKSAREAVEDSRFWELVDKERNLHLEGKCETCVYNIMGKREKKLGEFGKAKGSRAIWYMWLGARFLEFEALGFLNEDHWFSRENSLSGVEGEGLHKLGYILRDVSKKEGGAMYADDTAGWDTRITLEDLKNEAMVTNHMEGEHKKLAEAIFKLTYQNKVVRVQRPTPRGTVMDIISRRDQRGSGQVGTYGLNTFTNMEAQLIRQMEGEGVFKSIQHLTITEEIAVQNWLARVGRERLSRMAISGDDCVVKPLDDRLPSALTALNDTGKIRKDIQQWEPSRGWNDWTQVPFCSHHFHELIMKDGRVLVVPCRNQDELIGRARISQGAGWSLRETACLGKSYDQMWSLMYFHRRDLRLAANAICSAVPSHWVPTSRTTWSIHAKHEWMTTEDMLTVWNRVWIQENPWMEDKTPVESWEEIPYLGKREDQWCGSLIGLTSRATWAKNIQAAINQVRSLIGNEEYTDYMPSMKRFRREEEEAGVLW
ASSAY_TEXT: flavivirus cap methylation enzyme inhibition – biochemical, confirmation dose response, primary screen (AID 588689)
Assay type: functional
The source made the active and inactive calls.
QUANTITY_KIND: IC50

State the recorded IC50 for this entry: COc1cccc(NS(=O)(=O)c2ccc3c(c2)C2C=CCC2C(c2ccc(C(=O)O)cc2)N3)c1 (configuration not stated) 67 µM (active)

And then `COc1ccc(OC)c2c1C(=O)C(Cl)=C(Cl)C2=O` , what is it? 5.23 µM (active)

And then `CCCOc1ccc(C(=O)N/N=C/c2ccc(-c3ccc(S(=O)(=O)Nc4ncccn4)cc3)o2)cc1` , what is it? > 100 µM (active)

And then `O=C(O)c1cc([N+](=O)[O-])c(Nc2cccc3ccccc23)c([N+](=O)[O-])c1` , what is it? 64.7 µM (active)

And then `O=C(NCCO)c1ccc2nc(-c3ccco3)c(-c3ccco3)nc2c1` , what is it? 67.7 µM (active)

And then CC1=C(O)C(=O)C=C2C1=CC=C1C2(C)CCC2(C)C3CC(C)(C(=O)O)CCC3(C)CCC12C (configuration not stated) , what is it? 19.7 µM (active)

And then `O=C1CC(Nc2ccc([N+](=O)[O-])cc2)=NN1c1c(Cl)cc(Cl)cc1Cl` , what is it? 48.4 µM (active)
